# experimentalTarget: DmNobo (Drosophila melanogaster)
# Construct: full-length CDS, pCold-III, N-terminal translation enhancing element MNHKV kept; E. coli BL21(DE3); homodimer
# Sequence (Q7JYX0 whole entry): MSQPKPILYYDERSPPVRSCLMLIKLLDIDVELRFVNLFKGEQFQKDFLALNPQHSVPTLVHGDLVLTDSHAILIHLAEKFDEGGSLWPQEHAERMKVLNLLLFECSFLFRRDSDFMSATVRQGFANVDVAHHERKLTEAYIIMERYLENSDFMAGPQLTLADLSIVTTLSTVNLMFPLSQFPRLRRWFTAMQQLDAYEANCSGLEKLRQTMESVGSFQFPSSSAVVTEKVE
# experiment: SPR, Biacore T200, protein immobilised on CM5 chip by amine coupling
assayReadout: Kd (nM)
Report only the number, with the unit nM understood.

q: # get_value(readout='Kd', item= C[C@]12CC[C@@H]3c4ccc(O)cc4CC[C@H]3[C@@H]1CC[C@@H]2O [17β-estradiol] )
a: 480

---

# experimentalTarget: DmGSTE6 (Drosophila melanogaster)
# Sequence (A1ZB71 1-222): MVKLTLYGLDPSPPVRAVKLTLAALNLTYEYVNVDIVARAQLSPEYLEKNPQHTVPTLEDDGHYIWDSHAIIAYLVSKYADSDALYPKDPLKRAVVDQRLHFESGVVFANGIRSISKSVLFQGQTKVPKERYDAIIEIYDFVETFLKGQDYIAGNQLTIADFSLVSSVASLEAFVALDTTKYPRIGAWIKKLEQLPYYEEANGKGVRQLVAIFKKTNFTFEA
pIC50: −log10 of the molar value.
assayReadout: pIC50

q: # get_value(readout='pIC50', item= C[C@]12CC[C@@H]3c4ccc(O)cc4CC[C@H]3[C@@H]1CC[C@@H]2O [17β-estradiol] )
a: < 4.60
